biological target: Bovine brain FTase (Bos taurus, UniProt P29702+P49355); construct: an assay employing bovine brain FPTase; from tissue; host or cells: bovine brain; experiment: Assay of compounds for FPTase inhibitory activity, bovine brain FPTase; assay type: biochemical
Measured quantity: IC50 (µM)

CC(C)=CCC/C(C)=C/CC/C(C)=C/CC/C(C)=C/COP(=O)(O)OP(=O)(O)O [GGPP, geranylgeranyl-diphosphate] = 0.2

I: CC(C)=CCC/C(C)=C/CC/C(C)=C/CO[P@@](=O)(O)OP(=O)(O)O (stereo in doubt) [FPP, farnesyl diphosphate]
II: CC(C)=CCC/C(C)=C/CC/C(C)=C/C(O)P(=O)(O)O (racemic)
Select the item with the higher value of IC50 from the options I and II listed. State your choice using its label.
I

From: patent US5821118A
